Values from patent US11261177B2

The compounds listed here are annotated with their pest or weed control at 200 g/ha.
Test system: Lolium perenne
TEST DESCRIPTION: Pre-emergence herbicidal assay, 96 cell trays, glasshouse
Assay type: in vivo
TEST CONDITIONS: 168 h, second trial (Table 2), Lollium, 0.2 kg/ha, assessed 7 days after treatment, read-out: % control of plant growth

Consider the worked cases shown below.
{"columns": ["COMPOUND", "pest or weed control at 200 g/ha"],
 "data": [
  ["C#CCN1C(=O)C2(CC2)Oc2cc(F)c(N3C(=O)c4ccccc4C3=O)cc21", "20 to 80%"],
  ["C#CCN1C(=O)C2(CC2)Oc2cc(F)c(N3C(=O)c4cccc(F)c4C3=O)cc21", "< 20%"],
  ["C#CCN1C(=O)C2(CC2)Oc2cc(F)c(-n3ncc(C(F)(F)F)c(C)c3=O)cc21", "80 to 100%"],
  ["CCCN1C(=O)C2(CC2)Oc2cc(F)c(N3C(=O)c4ccc(F)cc4C3=O)cc21", "< 20%"]
]}

[ask] May I ask what pest or weed control at 200 g/ha has been recorded for C#CCN1C(=O)C2(CN(C(=O)OCc3ccccc3)C2)Oc2cc(F)c(N3C(=O)c4ccc(F)cc4C3=O)cc21 ?
[reply] < 20%

[ask] May I ask what pest or weed control at 200 g/ha has been recorded for C#CCN1C(=O)C2(CC2)Oc2cc(F)c(N3C(=O)c4ccc(O)cc4C3=O)cc21 ?
[reply] < 20%

[ask] May I ask what pest or weed control at 200 g/ha has been recorded for C#CCN1C(=O)C2(CC2)Oc2cc(F)c(N3C(=O)c4ccc(C)cc4C3=O)cc21 ?
[reply] 20 to 80%

[ask] May I ask what pest or weed control at 200 g/ha has been recorded for O=C1c2ccc(F)cc2C(=O)N1c1cc2c(cc1F)OC1(CC1)C(=O)N2CC1CO1 (centres unmarked) ?
[reply] < 20%

====

The compounds listed here are annotated with their pest or weed control at 1000 g/ha.
Tested on: Stellaria media—Chickweed
TEST DESCRIPTION: Pre-emergence herbicidal assay, 96 cell trays, glasshouse
Type: in vivo
TEST CONDITIONS: 168 h, second trial (Table 2), 1 kg/ha, assessed 7 days after treatment, read-out: % control of plant growth

{"columns": ["COMPOUND", "pest or weed control at 1000 g/ha"],
 "data": [
  ["C#CCN1C(=O)C2(CC2)Oc2cc(F)c(/N=c3\\sc(=O)n4n3CCCC4)cc21", "80 to 100%"],
  ["C#CCN1C(=O)C2(CC2)Oc2cc(F)c(-n3ncc(C(F)(F)F)c(C)c3=O)cc21", "80 to 100%"],
  ["COC(=O)C(C)N1C(=O)C2(CC2)Oc2cc(F)c(N3C(=O)c4ccc(F)cc4C3=O)cc21 (centres unmarked)", "80 to 100%"]
]}

Pending compound:
[ask] May I ask what pest or weed control at 1000 g/ha has been recorded for C#CCN1C(=O)C2(CC2)Oc2cc(F)c(N3C(=O)CCC3=O)cc21 ?
[reply] 80 to 100%

====

System: Stellaria media—Chickweed
TEST DESCRIPTION: Pre-emergence herbicidal assay, 96 cell trays, glasshouse
Format: in vivo
TEST CONDITIONS: 168 h, second trial (Table 2), 1 kg/ha, assessed 7 days after treatment, read-out: % control of plant growth
ENDPOINT: pest or weed control at 1000 g/ha

{"columns": ["COMPOUND", "ENDPOINT", "OBSERVED"],
 "data": [
  ["C#CCN1C(=O)C2(CC2)Oc2cc(F)c(-n3c(=O)cc(C(F)(F)F)n(CC(=O)OC)c3=O)cc21", "pest or weed control at 1000 g/ha", "80 to 100%"],
  ["CC(C(=O)O)N1C(=O)C2(CC2)Oc2cc(F)c(N3C(=O)c4ccc(F)cc4C3=O)cc21 (stereo not shown)", "pest or weed control at 1000 g/ha", "20 to 80%"],
  ["CCOC(=O)C(C)N1C(=O)C2(CC2)Oc2cc(F)c(N3C(=O)C=C(C(F)(F)F)C3=O)cc21 (stereo not shown)", "pest or weed control at 1000 g/ha", "20 to 80%"],
  ["C#CCN1C(=O)C2(CC2)Oc2cc(F)c(N3C(=O)C=C(C(F)(F)F)C3=O)cc21", "pest or weed control at 1000 g/ha", "< 20%"],
  ["COCCN1C(=O)C2(CC2)Oc2cc(F)c(N3C(=O)c4ccc(F)cc4C3=O)cc21", "pest or weed control at 1000 g/ha", "80 to 100%"],
  ["C#CCN1C(=O)C2(CC2)Oc2cc(F)c(N3C(=O)C4=C(CCCC4)C3=O)cc21", "pest or weed control at 1000 g/ha", "80 to 100%"]
]}

Pending compound:
[ask] May I ask what pest or weed control at 1000 g/ha has been recorded for C#CCN1C(=O)C2(CCC2)Oc2cc(F)c(N3C(=O)C=C(C(F)(F)F)C3=O)cc21 ?
[reply] 20 to 80%
